test system: mixed lymphocyte reaction (PBMC with allogeneic PBMC or Eppstein-Barr Virus-transformed human B cells as stimulator cells); experiment: Mixed lymphocyte reaction (MLR) assay; type: cell-based; settings: lowest concentration giving 50% suppression of the MLR; [3H]-thymidine
measured_parameter: pIC50
Please express pIC50 as -log10 of the molar concentration.

Inquiry: If you can, please state the reported pIC50 value of COc1ccc(-c2cnc3nc(N)nc(N4CCN(C(=O)C5CCCCC5)CC4)c3n2)cc1OC [Example 30] .
Reply text: 7.00

Inquiry: Follow-up item: COc1ccc(-c2cnc3nc(N)nc(N4CCN(Cc5cccc(C)c5)CC4)c3n2)cc1OC [Example 136]
Reply text: 5.85

Inquiry: COc1cc(-c2cnc3nc(N)nc(N4CCN(c5ccc(C)cc5)CC4)c3n2)ccc1O [Example 206] , same question.
Reply text: 6.30

Inquiry: Now consider COc1ccc(-c2cnc3nc(N)nc(N4CCN(C(=O)Nc5ccc(Br)cc5)CC4)c3n2)cc1OC [Example 196] and answer again.
Reply text: 7.00

Inquiry: And the next one, COc1ccc(-c2cnc3nc(N)nc(N4CCN(C(=O)Nc5ccc(F)c(Cl)c5)CC4)c3n2)cc1OC [Example 106] ?
Reply text: 7.24

Inquiry: Would you kindly repeat that for COc1ccc(-c2cnc3nc(N)nc(N4CCN(CCOc5ccccc5)CC4)c3n2)cc1OC [Example 154] ?
Reply text: 7.00

Inquiry: Next up: COc1ccc(-c2cnc3nc(N)nc(N4CCN(C(=O)c5ccc(Cl)cc5)CC4)c3n2)cc1OC [Example 12]
Reply text: 6.52

Inquiry: Now the molecule COc1ccc(-c2cnc3nc(N)nc(N4CCN(C(=O)c5ccccc5)CC4)c3n2)cc1OC [Example 11]
Reply text: 6.40

Inquiry: // same read-out, input: COc1ccc(-c2cnc3nc(N)nc(N4CCN(C(=O)N(C)c5ccccc5)CC4)c3n2)cc1OC [Example 117]
Reply text: 7.14

Inquiry: Moving on to the next molecule: COc1ccc(-c2cnc3nc(N)nc(N4CCN(c5ccc(C)cc5)CC4)c3n2)cc1OC [Example 176]
Reply text: 6.52

Inquiry: Moving on to the next molecule: COc1ccc(-c2cnc3nc(N)nc(N4CCN(C(=O)N(C(C)C)C(C)C)CC4)c3n2)cc1OC [Example 20]
Reply text: 6.30

Inquiry: How about this molecule: COc1ccc(-c2cnc3nc(N)nc(N4CCN(c5ccc(Cl)cc5)CC4)c3n2)cc1OC [Example 162]
Reply text: 6.10

Inquiry: # iterate: COc1ccc(-c2cnc3nc(N)nc(N4CCN(CCN5CCOCC5)CC4)c3n2)cc1OC [Example 129]
Reply text: 5.60

Inquiry: Try this molecule too: COc1ccc(-c2cnc3nc(N)nc(N4CCN(C(=O)Oc5ccccc5OC)CC4)c3n2)cc1OC [Example 93]
Reply text: 7.15

Inquiry: What about COc1ccc(-c2cnc3nc(N)nc(N4CCN(CCc5ccccc5)CC4)c3n2)cc1OC [Example 159] ?
Reply text: 6.96

Inquiry: And COc1ccc(N2CCN(c3nc(N)nc4ncc(-c5ccc(OC)c(OC)c5)nc34)CC2)cc1 [Example 161] ?
Reply text: 6.40

---

Please go through the items and note down their pIC50.
system: mixed lymphocyte reaction (PBMC with allogeneic PBMC or Eppstein-Barr Virus-transformed human B cells as stimulator cells); assay: Mixed lymphocyte reaction (MLR) assay; assay type: cell-based; settings: lowest concentration giving 50% suppression of the MLR; [3H]-thymidine
Scale: pIC50 equals -log10([C]), with [C] in mol/L.

Inquiry: Consider the molecule "COc1ccc(-c2cnc3nc(N)nc(N4CCN(CCC#N)CC4)c3n2)cc1OC" and give its measured pIC50.
Reply text: 6.30

Inquiry: Same again, this time with "COc1ccc(-c2cnc3nc(N)nc(N4CCN(Cc5cccc6ccccc56)CC4)c3n2)cc1OC"
Reply text: 6.10

Inquiry: And "COc1cccc(C(=O)N2CCN(c3nc(N)nc4ncc(-c5ccc(OC)c(OC)c5)nc34)CC2)c1" ?
Reply text: 6.30

Inquiry: Please give the result for "COc1ccc(-c2cnc3nc(N)nc(N4CCN(C(=O)Oc5ccc6ccccc6c5)CC4)c3n2)cc1OC" too.
Reply text: 6.92

Inquiry: Subsequent entry: "COc1ccc(-c2cnc3nc(N)nc(N4CCN(C(=O)c5ccc(C#N)cc5)CC4)c3n2)cc1OC"
Reply text: 6.10

Inquiry: Moving on to "COc1ccc(-c2cnc3nc(N)nc(N4CCN(CCN(C(C)C)C(C)C)CC4)c3n2)cc1OC"
Reply text: 5.13

Inquiry: Same again, this time with "COc1ccc(-c2cnc3nc(N)nc(N4CCN(C(=O)c5ccncc5)CC4)c3n2)cc1OC"
Reply text: 5.62

Inquiry: Ok, now "COc1ccc(-c2cnc3nc(N)nc(N4CCN(C(=O)Nc5ccc(F)cc5)CC4)c3n2)cc1OC"
Reply text: 8.13
